# experimental_system: T1, genetically modified and chemically inactivated C. difficile toxoid A (Clostridium difficile, UniProt P16154 2-2710)
# T1 construct: also called TxdA; the toxoid
# assay_notes: ITC
Hi, to clarify the labels: rule met covers Stoichiometry from 1 upward, rule not met covers anything below 1.

Example cases with answers are listed next.
binder	assigned_category
hCDIFA-1 (antibody, V domains shown) VH: QLQLQESGPGLVKPSETLSLICTVSGGSFSSSDFYWGWIRQPPGKGLEWIGNFYYNGSTSYNPSLKSRVTISVDTSKNQFSLKLRSVTAADTAVYYCARDYNFWNNSPNWFDPWGQGTLVTVSS VL: EIVMTQSPATLSVSPGERATLSCRASQSISSNLAWYQQKLGQAPRLLIHGASTRATGIPARFSGSGSGTQFTLTISSLQSEDFAVYFCQQYNNWPPTFGGGTKVDIKR	rule met
hCDIFA-8 (antibody, V domains shown) VH: QVQLVESGGGLVKPGGSLRLSCAASGFTFSTSSMNWVRQAPGKGLEWVSSINTSGDYIYYTDSVKGRFTISRDNAKNSLYLQMNSLRAEDTAVYYCARDLGTWRDYWGQGTLVTVSS VL: QSVLTQPASVSGSPGQSITISCTGTSSDVGSYNLVSWYHQHPGKAPKLIIYEVSKRPSGVSNRFSGSKSGNTASLTISGLQAEDEADYYCYSYAGSSAFAWVFGTGTKLTVLG	rule met
hCDIFA-35 (antibody, V domains shown) VH: EVQLVQSGGGVVQPGRSLKLSCAASGFSFSSHGMHWVRQAPGKGLEWVALISYDGSYKYYEDSVKGRFTISRDNSKNTLYLQMNSLRAEDTAVYYCAKDWERYCSGMSCYLRNSLDYWGQGTLVTVSS VL: QSALTQPPSVSVAPGKTAGITCGGPNIGSKSVHWYQRKPGQAPVLVVYDDRYRPSGIPERFSGSNSGNTATLSISRVEAGDEADYYCQVWDSRSDHVVFGGGTKLTVLG	rule met

Here is the next item to consider.
Query: Check if Stoichiometry >= 1 (inclusive). Item: hCDIFA-26 (antibody, V domains shown) VH: EVQLLESGAEVKKPGESLRISCNCSGYSFTSYWIGWVRQMPGEGLEWMGLIQPGGDSYPRYSPSFQGQVTISADKSISTAYLQWRSLKASDTAMYYCARRGFDHWGQGTLVTVSS VL: NFMLTQPPSASGAPGQRVTISCSGSSSNIGSNTVNWYQQLPGTAPKLLIYSNIQRPSGVPDRFSGSKSGTSASLAISGLQSDDEADYYCSAWDDSLNGYVFGTGTKVTVLG
Reply: rule met

The reported numbers originate from patent US20230218735A1.
